Rate of increase or decrease listing for selected molecules.
- assay_comment: GC/MS of blood plasma sample: time from blood collection to centrifugation (Table A)
- Assay type: physicochemical, human
- study_conditions: detection intensity relative to 1 at 15 minutes, blood collection to centrifugation, after 12 hours
Counter-ions that a name gives are not always drawn.
metric: Rate of increase or decrease

{"columns": ["molecule", "readout_number"],
 "data": [
  ["CCCCCCCCCCCCCC(=O)O [Myristic acid]", 1.55],
  ["O=S(=O)(O)Oc1c[nH]c2ccccc12 [Indoxyl sulfate]", 1.50],
  ["CCCCCCCCCCCCCCCCCC(=O)O [Stearic acid]", 2.13],
  ["OC[C@H]1O[C@@H](O[C@H]2[C@H](O)[C@@H](O)C(O)O[C@@H]2CO)[C@H](O)[C@@H](O)[C@H]1O (stereo partly drawn) [Lactose]", 0.70],
  ["O=c1[nH]c(=O)c2[nH]c(=O)[nH]c2[nH]1 [Uric acid]", 1.89],
  ["CC(CN)C(=O)O (stereo not drawn) [3-Aminoisobutyric acid]", 1.44],
  ["O=c1ccn([C@H]2C[C@H](O)[C@@H](CO)O2)c(=O)[nH]1 [2′-Deoxyuridine]", 1.43],
  ["O=C(O)CC(O)C(=O)O (stereo not drawn) [Malic acid]", 1.36],
  ["CN(C)CC(=O)O [Dimethylglycine]", 1.41],
  ["CCCCC/C=C\\C/C=C\\CCCCCCCC(=O)O [Linoleic acid]", 1.34],
  ["CCCCCCCCCCCCCCCCCC(=O)OCC(O)CO (stereo not drawn) [Monostearin]", 1.35],
  ["CCCCCCCCCCCCCCCC(=O)O [Palmitic acid]", 4.05],
  ["CC(C)CCC[C@@H](C)[C@H]1CC[C@H]2[C@@H]3CC=C4C[C@@H](O)CC[C@]4(C)[C@H]3CC[C@]12C [Cholesterol]", 1.38],
  ["O=C(O)C(O)Cc1ccc(O)cc1 (stereo not drawn) [4-Hydroxyphenyllactic acid]", 1.33],
  ["CCCCCCCC/C=C\\CCCCCCCC(=O)O [Oleic acid]", 4.05]
]}
